# System: Rattus norvegicus
# procedureDetails: Antiinflammatory activity in Wistar albino rat assessed as inhibition of carrageenan-induced paw edema administered at equimolar oral dose relative to 10 mg/kg fluribiprofen measured 4 hrs after carrageenan challenge
# Assay type: functional
Here the recorded inhibition in vivo is given for each entry.
# output: numeric value plus its unit

Known results for compounds:
# smi, testedSystem, inhibition in vivo
records = [
    ("c1ccc(-c2ccc(OCc3nnc4sc(-c5ccccc5)nn34)cc2)cc1", "Rattus norvegicus", "65.1%"),
    ("Nc1ccccc1-c1nn2c(COc3ccc(-c4ccccc4)cc3)nnc2s1", "Rattus norvegicus", "47.7%"),
    ("Cc1ccc(Nc2nn3c(COc4ccc(-c5ccccc5)cc4)nnc3s2)c(C)c1", "Rattus norvegicus", "39.4%"),
    ("Nc1ccc(-c2nn3c(COc4ccc(-c5ccccc5)cc4)nnc3s2)cc1", "Rattus norvegicus", "76.5%"),
]

# ---- query compound ----
Notebook: Clc1ccc(-c2nn3c(COc4ccc(-c5ccccc5)cc4)nnc3s2)cc1 , inhibition in vivo read as 78.8%

---

Here the recorded MIC is given for each entry.
# Test system: Escherichia coli
# procedureDetails: Antibacterial activity against sEscherichia coli ATCC 25922 by cup plate method
# Assay type: functional
Give a bare numeral; the unit µg/mL is implied.

Known results for compounds:
# compound, unitsText, MIC
rows = [
    ("Fc1ccc(Nc2nn3c(COc4ccc(-c5ccccc5)cc4)nnc3s2)cc1", "µg/mL", 25),
    ("CC(C)Cc1ccc(C(C)c2nnc3sc(Nc4ccccc4)nn23)cc1 (stereo not given)", "µg/mL", 25),
    ("CC1COc2c(N3CCN(C)CC3)c(F)cc3c(=O)c(C(=O)O)cn1c23 (stereo not given) [OFLOXACIN]", "µg/mL", 6.25),
]

Notebook: Clc1ccc(OCc2nn3c(COc4ccc(-c5ccccc5)cc4)nnc3s2)c(Cl)c1 , MIC read as 50

Notebook: CC(C)Cc1ccc(C(C)c2nnc3sc(Nc4ccc(F)cc4)nn23)cc1 (stereo not given) , MIC read as 200

---

# Test system: Rattus norvegicus
# procedureDetails: Gastrointestinal toxicity in rat assessed as gastric mucosal damage severity index administered at equimolar oral dose relative to 210 mg/kg ibuprofen
# Type: organism-based, Gastric mucosa
# Parameters: dose 210 mg/kg, route oral
# experimentalConditions: in vivo
measuredProperty: UI

Known results for compounds:
# compound, endpointResult
data = [
    ("CC(C)Cc1ccc(C(C)c2nnc3sc(-c4ccc(N)cc4)nn23)cc1 (centres undefined)", 0.75),
    ("CC(C)Cc1ccc(C(C)c2nnc3sc(Nc4ccccc4)nn23)cc1 (centres undefined)", 0.667),
    ("CC(C)Cc1ccc(C(C)c2nnc3sc(-c4ccc(Cl)cc4Cl)nn23)cc1 (centres undefined)", 0.333),
]

# ---- query compound ----
Notebook: CCCCNc1nn2c(C(C)c3ccc(CC(C)C)cc3)nnc2s1 (centres undefined) , UI read as 1

---

# System: Escherichia coli
# procedureDetails: Antibacterial activity against sEscherichia coli ATCC 25922 by cup plate method
# Assay type: functional
measuredProperty: MIC (µg/mL)
Give a bare numeral; the unit µg/mL is implied.

Notebook: Cc1ccc(Nc2nn3c(COc4ccc(-c5ccccc5)cc4)nnc3s2)c(C)c1 , MIC read as 50

Notebook: Nc1ccccc1-c1nn2c(COc3ccc(-c4ccccc4)cc3)nnc2s1 , MIC read as 50

Notebook: CCCCNc1nn2c(COc3ccc(-c4ccccc4)cc3)nnc2s1 , MIC read as 100

Notebook: CC(C)Cc1ccc(C(C)c2nnc3sc(COc4ccc(Cl)cc4Cl)nn23)cc1 (stereo not given) , MIC read as 25

Notebook: Nc1ccc(-c2nn3c(COc4ccc(-c5ccccc5)cc4)nnc3s2)cc1 , MIC read as 200

Notebook: CC(C)Cc1ccc(C(C)c2nnc3sc(-c4ccc(Cl)cc4Cl)nn23)cc1 (stereo not given) , MIC read as 200

Notebook: Clc1ccc(-c2nn3c(COc4ccc(-c5ccccc5)cc4)nnc3s2)c(Cl)c1 , MIC read as 50

Notebook: c1ccc(-c2ccc(OCc3nnc4sc(-c5ccccc5)nn34)cc2)cc1 , MIC read as 25

Notebook: CC(C)Cc1ccc(C(C)c2nnc3sc(-c4ccccc4N)nn23)cc1 (stereo not given) , MIC read as 100

Notebook: CC(C)Cc1ccc(C(C)c2nnc3sc(Cc4ccccc4Nc4c(Cl)cccc4Cl)nn23)cc1 (stereo not given) , MIC read as 200

---

Here the recorded Activity is given for each entry.
# System: Rattus norvegicus
# procedureDetails: Inhibition of lipid peroxidation in rat assessed as malondialdehyde level per 100 mg of tissue administered at equimolar oral dose relative to 210 mg/kg ibuprofen
# Type: functional
Give a bare numeral; the unit nmol is implied.

Known results for compounds:
# compound, Activity / nmol
rows = [
    ("CCCCNc1nn2c(C(C)c3ccc(CC(C)C)cc3)nnc2s1 (centres undefined)", 5.78),
    ("CC(C)Cc1ccc(C(C)c2nnc3sc(-c4ccc(N)cc4)nn23)cc1 (centres undefined)", 5.65),
    ("CC(C)Cc1ccc(C(C)c2nnc3sc(Nc4ccccc4)nn23)cc1 (centres undefined)", 5.12),
]

Notebook: CC(C)Cc1ccc(C(C)c2nnc3sc(-c4ccc(Cl)cc4Cl)nn23)cc1 (centres undefined) , Activity read as 5.04

---

# Tested on: Staphylococcus aureus
# procedureDetails: Antibacterial activity against Staphylococcus aureus ATCC 19433 by cup plate method
# Format: functional
Here the recorded MIC is given for each entry.
Give a bare numeral; the unit µg/mL is implied.

Known results for molecules:
# molecule, measuredProperty, endpointResult
measured = [
    ("CC(C)Cc1ccc(C(C)c2nnc3sc(Nc4ccc(F)cc4)nn23)cc1 (stereo unspecified)", "MIC", 200),
    ("Nc1ccc(-c2nn3c(COc4ccc(-c5ccccc5)cc4)nnc3s2)cc1", "MIC", 50),
]

Form field, MIC with Staphylococcus aureus, item CC(C)Cc1ccc(C(C)c2nnc3sc(COc4ccc(Cl)cc4Cl)nn23)cc1 (stereo unspecified) : 200

Form field, MIC with Staphylococcus aureus, item Clc1ccc(-c2nn3c(COc4ccc(-c5ccccc5)cc4)nnc3s2)c(Cl)c1 : 25

Form field, MIC with Staphylococcus aureus, item Nc1ccccc1-c1nn2c(COc3ccc(-c4ccccc4)cc3)nnc2s1 : 25

Form field, MIC with Staphylococcus aureus, item CCCCNc1nn2c(C(C)c3ccc(CC(C)C)cc3)nnc2s1 (stereo unspecified) : 200

Form field, MIC with Staphylococcus aureus, item c1ccc(-c2ccc(OCc3nnc4sc(-c5ccccc5)nn34)cc2)cc1 : 25

Form field, MIC with Staphylococcus aureus, item CC(C)Cc1ccc(C(C)c2nnc3sc(-c4ccc(N)cc4)nn23)cc1 (stereo unspecified) : 200

Form field, MIC with Staphylococcus aureus, item CC1COc2c(N3CCN(C)CC3)c(F)cc3c(=O)c(C(=O)O)cn1c23 (stereo unspecified) [OFLOXACIN] : 6.25

Form field, MIC with Staphylococcus aureus, item CC(C)Cc1ccc(C(C)c2nnc3sc(Cc4ccccc4Nc4c(Cl)cccc4Cl)nn23)cc1 (stereo unspecified) : 50

Form field, MIC with Staphylococcus aureus, item CC(C)Cc1ccc(C(C)c2nnc3sc(Nc4ccccc4)nn23)cc1 (stereo unspecified) : 100

Form field, MIC with Staphylococcus aureus, item CC(C)Cc1ccc(C(C)c2nnc3sc(-c4ccccc4N)nn23)cc1 (stereo unspecified) : 200

Form field, MIC with Staphylococcus aureus, item CC(C)Cc1ccc(C(C)c2nnc3sc(-c4ccc(Cl)cc4Cl)nn23)cc1 (stereo unspecified) : 200

---

Here the recorded MIC is given for each entry.
# Tested on: Escherichia coli
# procedureDetails: Antibacterial activity against sEscherichia coli ATCC 25922 by cup plate method
# Assay type: functional
Give a bare numeral; the unit µg/mL is implied.

Known results for compounds:
# compound, MIC (µg/mL)
measured = [
    ("CC(C)Cc1ccc(C(C)c2nnc3sc(-c4ccc(N)cc4)nn23)cc1 (stereo not given)", 12.5),
    ("Clc1ccc(-c2nn3c(COc4ccc(-c5ccccc5)cc4)nnc3s2)cc1", 25),
    ("c1ccc(Nc2nn3c(COc4ccc(-c5ccccc5)cc4)nnc3s2)cc1", 25),
    ("CCCCNc1nn2c(C(C)c3ccc(CC(C)C)cc3)nnc2s1 (stereo not given)", 100),
]

Notebook: Cc1ccc(Nc2nn3c(C(C)c4ccc(CC(C)C)cc4)nnc3s2)c(C)c1 (stereo not given) , MIC read as 50

---

# Tested on: Rattus norvegicus
# procedureDetails: Antiinflammatory activity in Wistar albino rat assessed as inhibition of carrageenan-induced paw edema administered at equimolar oral dose relative to 70 mg/kg ibuprofen measured 4 hrs after carrageenan challenge
# Type: functional
Here the recorded inhibition in vivo is given for each entry.
Give a bare numeral; the unit % is implied.

Known results for compounds:
# compound, measuredProperty, endpointResult
measured = [
    ("CC(C)Cc1ccc(C(C)c2nnc3sc(Cc4ccccc4Nc4c(Cl)cccc4Cl)nn23)cc1 (centres undefined)", "inhibition in vivo", 18.2),
    ("CC(C)Cc1ccc(C(C)c2nnc3sc(Nc4ccc(F)cc4)nn23)cc1 (centres undefined)", "inhibition in vivo", 28),
    ("CC(C)Cc1ccc(C(C)c2nnc3sc(-c4ccc(N)cc4)nn23)cc1 (centres undefined)", "inhibition in vivo", 78.8),
    ("CC(C)Cc1ccc(C(C)c2nnc3sc(Nc4ccccc4)nn23)cc1 (centres undefined)", "inhibition in vivo", 68.2),
    ("CCCCNc1nn2c(C(C)c3ccc(CC(C)C)cc3)nnc2s1 (centres undefined)", "inhibition in vivo", 80.3),
]

# ---- query compound ----
Form field, inhibition in vivo with Rattus norvegicus, item CC(C)Cc1ccc(C(C)c2nnc3sc(COc4ccc(Cl)cc4Cl)nn23)cc1 (centres undefined) : 38.6
